# System: SF-295 CNS
# Test Name: NCI tumour cell line growth inhibition, 48 h
Entries annotated with measured GI50

Previously resolved entries follow.
Smiles	Property Measured	Observed Measurement
CCCCCCCC(=O)Nc1nc2[nH]c(CN3CCN(Cc4cccc(I)c4)CC3)c(CN3CCN(Cc4cccc(I)c4)CC3)c2c(=O)[nH]1	GI50	843 nM
CC(=O)CCc1ccc(Oc2c3ccccc3nc3occc23)cc1	GI50	15700 nM

Ask: Param item = O=C(N/N=C\c1ccc(N(CCCl)CCCl)cc1)c1cccnc1 ; retrieve measured GI50.
Reply: 6310 nM

Ask: Query COc1ccc2c(c1)C(=O)c1c-2n(CCCN=[N+]=[N-])c(=O)c2cc([N+](=O)[O-])ccc12 next
Reply: 33 nM
